- test.system: Cytochrome P450 11B1, mitochondrial (Homo sapiens, UniProt P15538)
- Sequence (P15538 whole entry): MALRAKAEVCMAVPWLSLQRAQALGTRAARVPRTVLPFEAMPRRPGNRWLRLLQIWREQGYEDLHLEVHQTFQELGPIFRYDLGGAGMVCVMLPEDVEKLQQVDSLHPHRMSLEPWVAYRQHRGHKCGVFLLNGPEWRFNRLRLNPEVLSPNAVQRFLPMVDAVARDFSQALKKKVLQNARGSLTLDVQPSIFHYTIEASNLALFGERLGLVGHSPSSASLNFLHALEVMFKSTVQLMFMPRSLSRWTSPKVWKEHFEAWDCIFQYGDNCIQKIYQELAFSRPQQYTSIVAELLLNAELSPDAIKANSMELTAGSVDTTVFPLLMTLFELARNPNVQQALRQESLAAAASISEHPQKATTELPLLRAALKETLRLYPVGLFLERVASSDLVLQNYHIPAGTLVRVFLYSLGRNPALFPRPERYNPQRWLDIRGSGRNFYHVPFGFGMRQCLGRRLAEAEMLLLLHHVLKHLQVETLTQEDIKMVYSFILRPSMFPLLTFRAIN
- method.description: Inhibition of human CYP11B1 expressed in hamster V79 MZh cells assessed as conversion of [4-14C]-11-deoxycorticosterone substrate by HPTLC assay
pIC50: −log10 of the molar value.
Record fulfilled whenever pIC50 is at 7 or higher; record not fulfilled when lower.

Worked set:
COc1cncc(-c2cc3c4c(c2)CCN4C(=O)CC3)c1: not fulfilled
O=C1CCc2cc(-c3cncc(-c4ccccc4)c3)cc3c2N1CC3: fulfilled
COc1cccc(-c2cncc(-c3cc4c5c(c3)CCN5C(=O)CC4)c2)c1: not fulfilled

Please check the record O=C1CCc2cc(-c3cncc(-c4cc(F)cc(F)c4)c3)cc3c2N1CC3 and state if its pIC50 is at or above 7.
not fulfilled

* * *

- test.system: Cytochrome P450 11B2, mitochondrial (Homo sapiens, UniProt P19099)
- method.description: Inhibition of human CYP11B2 expressed in hamster V79 MZh cells assessed as conversion of [4-14C]-11-deoxycorticosterone substrate at 500 nM by HPTLC assay
- Type: cell-based
- condition.info: V79MZh
result.type: inhibition at 0.5 µM (%)
Give the quantity in %, number only.

# example entries with known answers
COc1cncc(-c2cc3c4c(c2)CCN4C(=O)CC3)c1: 98
COc1ccc(-c2cncc(-c3cc4c5c(c3)CCN5C(=O)CC4)c2)cc1: 95
O=C1CCc2cc(-c3cncc(C(F)(F)F)c3)cc3c2N1CC3: 96
O=C1CCc2cc(-c3cncc(-c4cc(F)ccc4F)c3)cc3c2N1CC3: 80
O=C1CCc2cc(-c3cncc(-c4cc(F)cc(F)c4)c3)cc3c2N1CC3: 81

inhibition at 0.5 µM recorded for this compound, O=C1CCc2cc(-c3cncc(F)c3)cc3c2N1CC3 , is 97

# inhibition at 0.5 µM (compound: O=C1CCc2cc(-c3cncc(-c4cccc(F)c4)c3)cc3c2N1CC3 ) is 97

For this compound ( O=C1CCc2cc(-c3cccnc3)cc3c2N1CCC3 ), measured inhibition at 0.5 µM is 95

Reported inhibition at 0.5 µM of O=C1CCc2cc(-c3cncc(-c4ccccc4F)c3)cc3c2N1CC3 : 92

Recorded inhibition at 0.5 µM (compound S=C1CCc2cc(-c3cccnc3)cc3c2N1CC3 ): 96

// recorded inhibition at 0.5 µM for O=C1CCc2cc(-c3cncc(-c4cccc(C(F)(F)F)c4)c3)cc3c2N1CC3 : 80

* * *

- test.system: CYP2D6 (Homo sapiens)
- Sequence (P10635 whole entry): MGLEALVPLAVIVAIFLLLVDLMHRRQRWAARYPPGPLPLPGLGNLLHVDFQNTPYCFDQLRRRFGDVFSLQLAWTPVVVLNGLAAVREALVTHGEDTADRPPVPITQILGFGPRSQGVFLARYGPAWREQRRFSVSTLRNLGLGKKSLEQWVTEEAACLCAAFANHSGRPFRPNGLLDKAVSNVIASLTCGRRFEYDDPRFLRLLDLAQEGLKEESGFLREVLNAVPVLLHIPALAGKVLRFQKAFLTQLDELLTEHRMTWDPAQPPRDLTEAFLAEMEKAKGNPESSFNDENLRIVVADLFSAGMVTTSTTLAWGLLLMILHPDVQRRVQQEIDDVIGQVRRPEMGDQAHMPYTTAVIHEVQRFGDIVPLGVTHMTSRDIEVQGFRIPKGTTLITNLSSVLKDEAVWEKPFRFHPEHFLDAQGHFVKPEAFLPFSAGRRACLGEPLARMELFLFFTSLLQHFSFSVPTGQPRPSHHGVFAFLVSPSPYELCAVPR
- method.description: Inhibition of human CYP2D6 expressed in baculovirus-infected insect microsomes at 10 uM
- Format: ADME, Microsome
Measured inhibition at 10 µM by item

O=C1CCc2cc(-c3cccnc3)cc3c2N1CC3: < 5%
O=C1CCc2cc(-c3cncc(-c4cccc(F)c4)c3)cc3c2N1CC3: 9%

Per the records, this compound ( COc1cncc(-c2cc3c4c(c2)CCN4C(=O)CC3)c1 ) has inhibition at 10 µM equal to 13%

* * *

- test.system: UniProtKB P19099
- Sequence (P19099 whole entry): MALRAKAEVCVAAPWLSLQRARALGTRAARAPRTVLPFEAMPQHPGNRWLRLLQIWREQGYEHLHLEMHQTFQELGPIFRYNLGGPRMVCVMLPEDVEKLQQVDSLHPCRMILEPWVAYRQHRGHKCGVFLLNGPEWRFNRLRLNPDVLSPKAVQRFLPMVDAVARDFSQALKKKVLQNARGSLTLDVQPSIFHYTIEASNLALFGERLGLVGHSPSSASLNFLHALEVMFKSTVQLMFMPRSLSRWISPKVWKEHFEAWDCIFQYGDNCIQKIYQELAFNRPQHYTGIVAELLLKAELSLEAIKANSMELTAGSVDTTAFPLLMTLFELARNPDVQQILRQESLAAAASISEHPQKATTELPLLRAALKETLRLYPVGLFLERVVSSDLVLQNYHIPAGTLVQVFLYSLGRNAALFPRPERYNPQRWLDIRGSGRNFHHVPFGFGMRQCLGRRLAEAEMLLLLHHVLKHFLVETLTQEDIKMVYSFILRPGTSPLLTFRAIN
- method.description: Inhibition of human CYP11B2 expressed in hamster V79 MZh cells assessed as conversion of [4-14C]-11-deoxycorticosterone substrate by HPTLC assay
result.type: pIC50
Please express pIC50 as -log10 of the molar concentration.

O=C1CCc2cc(-c3cncc(C(F)(F)F)c3)cc3c2N1CC3: 8.23

// field: pIC50; key: S=C1CCc2cc(-c3cccnc3)cc3c2N1CC3 ; value = 8.92

Value of measured pIC50 for the entry O=C1CCc2cc(-c3cncc(-c4ccc(F)cc4)c3)cc3c2N1CC3 : 9.05

The reported pIC50 of the compound COc1ccccc1-c1cncc(-c2cc3c4c(c2)CCN4C(=O)CC3)c1 was 8.62

pIC50 recorded for this compound, CC(C)Oc1cncc(-c2cc3c4c(c2)CCN4C(=O)CC3)c1 , is 8.66

Form field pIC50, entry O=C1CCc2cc(-c3cncc(O)c3)cc3c2N1CC3 : 8.37

GET /value?item= O=C1CCc2cc(-c3cncc(-c4cccc(F)c4)c3)cc3c2N1CC3 &field=pIC50 returns 8.85

Sample COc1cncc(-c2cc3c4c(c2)CCN4C(=O)CC3)c1 ; pIC50 observed: 9.22

Note to self: pIC50 recorded for O=C1CCc2cc(-c3cncc(F)c3)cc3c2N1CC3 was 8.36

Measured pIC50 of O=C1CCc2cc(-c3cncc(-c4cccc(C(F)(F)F)c4)c3)cc3c2N1CC3 : 7.48

* * *

Form field: inhibition at 1 µM (one value per entry).
- test.system: CYP2C9 (Homo sapiens, UniProt P11712)
- Sequence (P11712 whole entry): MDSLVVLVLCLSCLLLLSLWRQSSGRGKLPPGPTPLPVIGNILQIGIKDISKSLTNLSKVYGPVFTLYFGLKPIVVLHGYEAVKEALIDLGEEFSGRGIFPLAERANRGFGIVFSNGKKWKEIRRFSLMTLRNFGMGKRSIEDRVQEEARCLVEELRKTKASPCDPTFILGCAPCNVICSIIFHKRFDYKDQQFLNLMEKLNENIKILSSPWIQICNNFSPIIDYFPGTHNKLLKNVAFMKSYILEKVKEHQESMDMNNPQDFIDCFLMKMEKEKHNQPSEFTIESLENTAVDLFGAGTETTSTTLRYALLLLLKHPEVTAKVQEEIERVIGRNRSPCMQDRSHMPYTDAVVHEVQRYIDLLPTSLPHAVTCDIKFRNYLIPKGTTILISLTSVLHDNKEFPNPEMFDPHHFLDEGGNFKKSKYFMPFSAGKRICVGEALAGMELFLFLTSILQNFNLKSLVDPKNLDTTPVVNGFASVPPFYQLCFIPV
- method.description: Inhibition of human CYP2C9 expressed in baculovirus-infected insect microsomes at 1 uM
- Assay type: ADME, Microsome
Dear colleague, please send the value followed by its unit.

O=C1CCc2cc(-c3cccnc3)cc3c2N1CC3: 6%
COc1cncc(-c2cc3c4c(c2)CCC(=O)N4CCC3)c1: 34%
O=C1CCc2cc(-c3cncc(-c4cccc(F)c4)c3)cc3c2N1CC3: 39%
O=C1CCc2cc(-c3cccnc3)cc3c2N1CCC3: 19%
COc1cncc(-c2cc3c4c(c2)CCN4C(=O)CC3)c1: 23%

# context switch: different molecule, same inhibition at 1 µM
So, O=C1CCc2cc(-c3cncc4ccccc34)cc3c2N1CCC3 ? Its inhibition at 1 µM was 73%

* * *

- Species: Homo sapiens
- method.description: Selectivity ratio of IC50 for human CYP11B1 to IC50 for human CYP11B2
Decide using Ratio IC50 alone. Strictly below 300: criterion met. Equal to or above 300: criterion not met.

Answered cases to consult:
O=C1CCc2cc(-c3cccnc3)cc3c2N1CC3: criterion not met
O=C1CCc2cc(-c3cncc(-c4ccccc4F)c3)cc3c2N1CC3: criterion met
O=C1CCc2cc(-c3cncc4ccccc34)cc3c2N1CCC3: criterion met
CCOc1cncc(-c2cc3c4c(c2)CCN4C(=O)CC3)c1: criterion met

Here is another compound to look at.
Confirm or reject: Ratio IC50 of O=C1CCc2cc(-c3cncc(-c4ccccc4)c3)cc3c2N1CC3 lies strictly below 300
criterion met

* * *

IC50 overview
- test.system: Cytochrome P450 11B2, mitochondrial (Homo sapiens, UniProt P19099)
- method.description: Inhibition of human CYP11B2 expressed in hamster V79 MZh cells assessed as conversion of [4-14C]-11-deoxycorticosterone substrate by HPTLC assay
Expressed in nM, but write only the number.

O=C1CCc2cc(-c3cccnc3)cc3c2N1CC3: 1.1

// recorded IC50 for O=C1CCc2cc(-c3cncc(-c4ccc(F)c(F)c4)c3)cc3c2N1CC3 : 2.3

// IC50 lookup, compound = COc1cccc(-c2cncc(-c3cc4c5c(c3)CCN5C(=O)CC4)c2)c1 , result: 4.6

Just so you know, measured IC50 for O=C1CCc2cc(-c3cccnc3)cc3c2N1CCC3 came out at 2.4

Lab note: O=C1CCc2cc(-c3cncc(-c4cc(F)ccc4F)c3)cc3c2N1CC3 gave IC50 of 3.6

Sure, the documented IC50 for O=C1CCc2cc(-c3cncc(-c4ccccc4F)c3)cc3c2N1CC3 is 0.7

GET /value?item= O=C1CCc2cc(-c3cncc(-c4cc(F)cc(F)c4)c3)cc3c2N1CC3 &field=IC50 returns 18

Per the records, this compound ( O=C1CCc2cc(-c3cncnc3)cc3c2N1CC3 ) has IC50 equal to 56

// sample COc1ccc(-c2cncc(-c3cc4c5c(c3)CCN5C(=O)CC4)c2)cc1 , its IC50 was 1.4

Field IC50 (entry O=C1CCc2cc(-c3cncc4ccccc34)cc3c2N1CCC3 ) reads 0.2

Sure, the documented IC50 for O=C1CCc2cc(-n3ccnc3)cc3c2N1CC3 is 89
